- Assay text: Solubility of cannabidiol in solvents, oils and buffers at 25° C.
- Assay type: physicochemical
- Measurement parameters: organic solvent or mixture; 2-methyl tetrahydrofuran (2-MeTHF), 25° C.
Measured quantity: solubility

Problem: Give recorded solubility. C=C(C)[C@@H]1CCC(C)=C[C@H]1c1c(O)cc(CCCCC)cc1O [Cannabidiol]
Solution: > 100 mg/mL

----------
- Assay text: Solubility of cannabidiol in solvents, oils and buffers at 25° C.
- Assay type: physicochemical
- Measurement parameters: organic solvent or mixture; Isopropyl Acetate (IPAc), 25° C.
Measured quantity: solubility

Problem: Give recorded solubility. C=C(C)[C@@H]1CCC(C)=C[C@H]1c1c(O)cc(CCCCC)cc1O
Solution: > 100 mg/mL

----------
- Assay text: Solubility of cannabidiol in solvents, oils and buffers at 25° C.
- Format: physicochemical
- Measurement parameters: aqueous with cosolvent or surfactant or cyclodextrin; Cremophor EL, 25° C.
Measured quantity: solubility

Problem: Give recorded solubility. C=C(C)[C@@H]1CCC(C)=C[C@H]1c1c(O)cc(CCCCC)cc1O [Cannabidiol]
Solution: > 100 mg/mL

----------
- Assay text: Solubility of cannabidiol in solvents, oils and buffers at 25° C.
- Assay type: physicochemical
- Measurement parameters: aqueous with cosolvent or surfactant or cyclodextrin; Tween 80, 25° C.
Measured quantity: solubility

Problem: Give recorded solubility. C=C(C)[C@@H]1CCC(C)=C[C@H]1c1c(O)cc(CCCCC)cc1O
Solution: > 100 mg/mL

----------
- Assay text: Solubility of cannabidiol in solvents, oils and buffers at 25° C.
- Format: physicochemical
- Measurement parameters: Britton Robinson buffer, aqueous buffer; BRB pH 10, 25° C.
Measured quantity: solubility (µg/mL)
Just the number in µg/mL, nothing appended.

Problem: Give recorded solubility. C=C(C)[C@@H]1CCC(C)=C[C@H]1c1c(O)cc(CCCCC)cc1O
Solution: 0.13

----------
- Assay text: Solubility of cannabidiol in solvents, oils and buffers at 25° C.
- Assay type: physicochemical
- Measurement parameters: oil or lipid; Dodecane Oil, 25° C.
Measured quantity: solubility
Returns: string containing the numeric result and its unit.

Problem: Give recorded solubility. C=C(C)[C@@H]1CCC(C)=C[C@H]1c1c(O)cc(CCCCC)cc1O
Solution: 28 mg/mL

----------
- Assay text: Solubility of cannabidiol in solvents, oils and buffers at 25° C.
- Type: physicochemical
- Measurement parameters: oil or lipid; Sunflower Seed Oil, 25° C.
Measured quantity: solubility

Problem: Give recorded solubility. C=C(C)[C@@H]1CCC(C)=C[C@H]1c1c(O)cc(CCCCC)cc1O
Solution: > 100 mg/mL

----------
- Assay text: Solubility of cannabidiol in solvents, oils and buffers at 25° C.
- Type: physicochemical
- Measurement parameters: organic solvent or mixture; DMSO, 25° C.
Measured quantity: solubility

Problem: Give recorded solubility. C=C(C)[C@@H]1CCC(C)=C[C@H]1c1c(O)cc(CCCCC)cc1O [Cannabidiol]
Solution: > 100 mg/mL

----------
- Assay text: Solubility of cannabidiol in solvents, oils and buffers at 25° C.
- Format: physicochemical
- Measurement parameters: organic solvent or mixture; 1-Propanol, 25° C.
Measured quantity: solubility

Problem: Give recorded solubility. C=C(C)[C@@H]1CCC(C)=C[C@H]1c1c(O)cc(CCCCC)cc1O [Cannabidiol]
Solution: > 100 mg/mL

----------
- Assay text: Solubility of cannabidiol in solvents, oils and buffers at 25° C.
- Format: physicochemical
- Measurement parameters: organic solvent or mixture; Ethanol (EtOH), 25° C.
Measured quantity: solubility

Problem: Give recorded solubility. C=C(C)[C@@H]1CCC(C)=C[C@H]1c1c(O)cc(CCCCC)cc1O
Solution: > 100 mg/mL

----------
- Assay text: Solubility of cannabidiol in solvents, oils and buffers at 25° C.
- Format: physicochemical
- Measurement parameters: organic solvent or mixture; Anisole, 25° C.
Measured quantity: solubility

Problem: Give recorded solubility. C=C(C)[C@@H]1CCC(C)=C[C@H]1c1c(O)cc(CCCCC)cc1O [Cannabidiol]
Solution: > 100 mg/mL

----------
- Assay text: Solubility of cannabidiol in solvents, oils and buffers at 25° C.
- Type: physicochemical
- Measurement parameters: organic solvent or mixture; Tetrahydrofuran, 25° C.
Measured quantity: solubility

Problem: Give recorded solubility. C=C(C)[C@@H]1CCC(C)=C[C@H]1c1c(O)cc(CCCCC)cc1O
Solution: > 100 mg/mL

----------
- Assay text: Solubility of cannabidiol in solvents, oils and buffers at 25° C.
- Type: physicochemical
- Measurement parameters: organic solvent or mixture; 2-butanone, 25° C.
Measured quantity: solubility

Problem: Give recorded solubility. C=C(C)[C@@H]1CCC(C)=C[C@H]1c1c(O)cc(CCCCC)cc1O
Solution: > 100 mg/mL

----------
- Assay text: Solubility of cannabidiol in solvents, oils and buffers at 25° C.
- Type: physicochemical
- Measurement parameters: Britton Robinson Buffer, aqueous buffer; BRB pH 6, 25° C.
Measured quantity: solubility (µg/mL)
Just the number in µg/mL, nothing appended.

Problem: Give recorded solubility. C=C(C)[C@@H]1CCC(C)=C[C@H]1c1c(O)cc(CCCCC)cc1O
Solution: 0.13

----------
- Assay text: Solubility of cannabidiol in solvents, oils and buffers at 25° C.
- Format: physicochemical
- Measurement parameters: organic solvent or mixture; Dichloromethane, 25° C.
Measured quantity: solubility

Problem: Give recorded solubility. C=C(C)[C@@H]1CCC(C)=C[C@H]1c1c(O)cc(CCCCC)cc1O
Solution: > 100 mg/mL

----------
- Assay text: Solubility of cannabidiol in solvents, oils and buffers at 25° C.
- Format: physicochemical
- Measurement parameters: organic solvent or mixture; Acetone, 25° C.
Measured quantity: solubility

Problem: Give recorded solubility. C=C(C)[C@@H]1CCC(C)=C[C@H]1c1c(O)cc(CCCCC)cc1O
Solution: > 100 mg/mL

----------
- Assay text: Solubility of cannabidiol in solvents, oils and buffers at 25° C.
- Assay type: physicochemical
- Measurement parameters: organic solvent or mixture; Methanol (MeOH), 25° C.
Measured quantity: solubility

Problem: Give recorded solubility. C=C(C)[C@@H]1CCC(C)=C[C@H]1c1c(O)cc(CCCCC)cc1O
Solution: > 100 mg/mL

----------
- Assay text: Solubility of cannabidiol in solvents, oils and buffers at 25° C.
- Assay type: physicochemical
- Measurement parameters: organic solvent or mixture; 2-Propanol (IPA), 25° C.
Measured quantity: solubility

Problem: Give recorded solubility. C=C(C)[C@@H]1CCC(C)=C[C@H]1c1c(O)cc(CCCCC)cc1O
Solution: > 100 mg/mL

----------
- Assay text: Solubility of cannabidiol in solvents, oils and buffers at 25° C.
- Type: physicochemical
- Measurement parameters: Britton Robinson buffer, aqueous buffer; BRB pH 11, 25° C.
Measured quantity: solubility
Returns: string containing the numeric result and its unit.

Problem: Give recorded solubility. C=C(C)[C@@H]1CCC(C)=C[C@H]1c1c(O)cc(CCCCC)cc1O
Solution: 0.41 µg/mL
